experiment-description: Ratio of IC90 for mouse bone marrow cell to IC90 for human bone marrow cell
Assay type: ADME, cell-based
condition-description: bone marrow cells
Exercise: state measured selectivity ratio for each of the compounds provided.

Consider the compound "CC[C@@]1(O)C(=O)OCc2c1c(N)c1n(c2=O)Cc2cc3ccccc3nc2-1" and give its recorded selectivity ratio.
4

Give the reported value of selectivity ratio for this record: "CCc1c2c(nc3ccccc13)-c1c(N)c3c(c(=O)n1C2)COC(=O)[C@]3(O)CC"
650

# return recorded selectivity ratio for entry "CC[C@@]1(O)C(=O)OCc2c1cc1n(c2=O)Cc2cc3c(N)cccc3nc2-1"
88

Please give the documented selectivity ratio of "CC[C@@]1(O)C(=O)OCc2c1cc1n(c2=O)Cc2cc3c(CN(C)C)c(O)ccc3nc2-1"
14

Specify reported selectivity ratio for the compound shown: "CCc1c2c(nc3ccc(OC(=O)N4CCC(N5CCCCC5)CC4)cc13)-c1cc3c(c(=O)n1C2)COC(=O)[C@]3(O)CC"
100
